- Tested on: NCI-H1703
- methodNotes: Cell viability assay, NCI-H1703
- Assay type: cell-based
- recordedConditions: Homo sapiens, NCI-H1703, Non-small cell lung cancer
assayMetric: pIC50
Answers are plain numbers, as −log10 of the molar value.

*Q* // map CNC(=O)N1CCc2c(c(N3CCCc4cc(-c5cnn(C)c5)c(C(F)F)cc43)nn2C2CCN(C(=O)CCCCCNc3cccc4c3C(=O)N(C3CCC(=O)NC3=O)C4=O)CC2)C1 (centres unmarked) to recorded pIC50 (system: NCI-H1703)
*A* 8.54

###

- targetEntity: P300 (Homo sapiens)
- methodNotes: Immunoblotting of P300 protein levels in LNCaP or 22RV1 cells
- Format: cell-based
- Parameters: LNCaP or 22RV1 cells that express CBP/P300 proteins were treated with GNE-781 or the bivalent compounds; endogenous in cells; host or cells: LNCaP (clone FGC) or 22RV1 cells
- recordedConditions: percentage of inhibition of p300 at 10 nM (Table 3); read-out: Degradation (10 nM)
assayMetric: inhibition at 0.01 µM

Please review the entries below; each comes with its answer.
[
  {
    "molecule": "CNC(=O)N1CCc2c(c(N3CCCc4cc(-c5cnn(C)c5)c(C(F)F)cc43)nn2C2CCN(C(=O)CCCCCCc3cccc4c3C(=O)N(C3CCC(=O)NC3=O)C4=O)CC2)C1 (centres unmarked) [P-085]",
    "targetEntity": "P300 (Homo sapiens)",
    "inhibition at 0.01 µM": "> 80%"
  },
  {
    "molecule": "CC(=O)N1CCc2c(c(N3CCCc4cc(-c5cnn(C)c5)c(C(F)F)cc43)nn2C2CCN(C(=O)CCCC3CN(c4cccc5c4C(=O)N(C4CCC(=O)NC4=O)C5=O)C3)CC2)C1 (centres unmarked) [P-146]",
    "targetEntity": "P300 (Homo sapiens)",
    "inhibition at 0.01 µM": "> 80%"
  },
  {
    "molecule": "CNC(=O)N1CCc2c(c(N3CCCc4cc(-c5cnn(C)c5)c(C(F)F)cc43)nn2C2CCN(C(=O)CCCCNc3ccc4c(c3)n(C)c(=O)n4C3CCC(=O)NC3=O)CC2)C1 (centres unmarked) [P-125]",
    "targetEntity": "P300 (Homo sapiens)",
    "inhibition at 0.01 µM": "> 80%"
  },
  {
    "molecule": "CC(=O)N1CCc2c(c(N3CCCc4cc(-c5cnn(C)c5)c(C(F)F)cc43)nn2C2CCN(C(=O)CCCCCOc3cccc4c3C(=O)N(C3CCC(=O)NC3=O)C4=O)CC2)C1 (centres unmarked) [P-117]",
    "targetEntity": "P300 (Homo sapiens)",
    "inhibition at 0.01 µM": "> 80%"
  }
]

Okay, next one:
*Q* Need inhibition at 0.01 µM, item CNC(=O)N1CCc2c(c(N3CCCc4cc(-c5cnn(C)c5)c(C(F)F)cc43)nn2C2CCN(C(=O)CCOCCOCCNc3cccc4c3C(=O)N(C3CCC(=O)NC3=O)C4=O)CC2)C1 (centres unmarked) [P-052]
*A* < 20%

###

For each entry below, report its inhibition at 0.01 µM value.
- targetEntity: P300 (Homo sapiens, UniProt Q09472)
- Sequence (Q09472 whole entry): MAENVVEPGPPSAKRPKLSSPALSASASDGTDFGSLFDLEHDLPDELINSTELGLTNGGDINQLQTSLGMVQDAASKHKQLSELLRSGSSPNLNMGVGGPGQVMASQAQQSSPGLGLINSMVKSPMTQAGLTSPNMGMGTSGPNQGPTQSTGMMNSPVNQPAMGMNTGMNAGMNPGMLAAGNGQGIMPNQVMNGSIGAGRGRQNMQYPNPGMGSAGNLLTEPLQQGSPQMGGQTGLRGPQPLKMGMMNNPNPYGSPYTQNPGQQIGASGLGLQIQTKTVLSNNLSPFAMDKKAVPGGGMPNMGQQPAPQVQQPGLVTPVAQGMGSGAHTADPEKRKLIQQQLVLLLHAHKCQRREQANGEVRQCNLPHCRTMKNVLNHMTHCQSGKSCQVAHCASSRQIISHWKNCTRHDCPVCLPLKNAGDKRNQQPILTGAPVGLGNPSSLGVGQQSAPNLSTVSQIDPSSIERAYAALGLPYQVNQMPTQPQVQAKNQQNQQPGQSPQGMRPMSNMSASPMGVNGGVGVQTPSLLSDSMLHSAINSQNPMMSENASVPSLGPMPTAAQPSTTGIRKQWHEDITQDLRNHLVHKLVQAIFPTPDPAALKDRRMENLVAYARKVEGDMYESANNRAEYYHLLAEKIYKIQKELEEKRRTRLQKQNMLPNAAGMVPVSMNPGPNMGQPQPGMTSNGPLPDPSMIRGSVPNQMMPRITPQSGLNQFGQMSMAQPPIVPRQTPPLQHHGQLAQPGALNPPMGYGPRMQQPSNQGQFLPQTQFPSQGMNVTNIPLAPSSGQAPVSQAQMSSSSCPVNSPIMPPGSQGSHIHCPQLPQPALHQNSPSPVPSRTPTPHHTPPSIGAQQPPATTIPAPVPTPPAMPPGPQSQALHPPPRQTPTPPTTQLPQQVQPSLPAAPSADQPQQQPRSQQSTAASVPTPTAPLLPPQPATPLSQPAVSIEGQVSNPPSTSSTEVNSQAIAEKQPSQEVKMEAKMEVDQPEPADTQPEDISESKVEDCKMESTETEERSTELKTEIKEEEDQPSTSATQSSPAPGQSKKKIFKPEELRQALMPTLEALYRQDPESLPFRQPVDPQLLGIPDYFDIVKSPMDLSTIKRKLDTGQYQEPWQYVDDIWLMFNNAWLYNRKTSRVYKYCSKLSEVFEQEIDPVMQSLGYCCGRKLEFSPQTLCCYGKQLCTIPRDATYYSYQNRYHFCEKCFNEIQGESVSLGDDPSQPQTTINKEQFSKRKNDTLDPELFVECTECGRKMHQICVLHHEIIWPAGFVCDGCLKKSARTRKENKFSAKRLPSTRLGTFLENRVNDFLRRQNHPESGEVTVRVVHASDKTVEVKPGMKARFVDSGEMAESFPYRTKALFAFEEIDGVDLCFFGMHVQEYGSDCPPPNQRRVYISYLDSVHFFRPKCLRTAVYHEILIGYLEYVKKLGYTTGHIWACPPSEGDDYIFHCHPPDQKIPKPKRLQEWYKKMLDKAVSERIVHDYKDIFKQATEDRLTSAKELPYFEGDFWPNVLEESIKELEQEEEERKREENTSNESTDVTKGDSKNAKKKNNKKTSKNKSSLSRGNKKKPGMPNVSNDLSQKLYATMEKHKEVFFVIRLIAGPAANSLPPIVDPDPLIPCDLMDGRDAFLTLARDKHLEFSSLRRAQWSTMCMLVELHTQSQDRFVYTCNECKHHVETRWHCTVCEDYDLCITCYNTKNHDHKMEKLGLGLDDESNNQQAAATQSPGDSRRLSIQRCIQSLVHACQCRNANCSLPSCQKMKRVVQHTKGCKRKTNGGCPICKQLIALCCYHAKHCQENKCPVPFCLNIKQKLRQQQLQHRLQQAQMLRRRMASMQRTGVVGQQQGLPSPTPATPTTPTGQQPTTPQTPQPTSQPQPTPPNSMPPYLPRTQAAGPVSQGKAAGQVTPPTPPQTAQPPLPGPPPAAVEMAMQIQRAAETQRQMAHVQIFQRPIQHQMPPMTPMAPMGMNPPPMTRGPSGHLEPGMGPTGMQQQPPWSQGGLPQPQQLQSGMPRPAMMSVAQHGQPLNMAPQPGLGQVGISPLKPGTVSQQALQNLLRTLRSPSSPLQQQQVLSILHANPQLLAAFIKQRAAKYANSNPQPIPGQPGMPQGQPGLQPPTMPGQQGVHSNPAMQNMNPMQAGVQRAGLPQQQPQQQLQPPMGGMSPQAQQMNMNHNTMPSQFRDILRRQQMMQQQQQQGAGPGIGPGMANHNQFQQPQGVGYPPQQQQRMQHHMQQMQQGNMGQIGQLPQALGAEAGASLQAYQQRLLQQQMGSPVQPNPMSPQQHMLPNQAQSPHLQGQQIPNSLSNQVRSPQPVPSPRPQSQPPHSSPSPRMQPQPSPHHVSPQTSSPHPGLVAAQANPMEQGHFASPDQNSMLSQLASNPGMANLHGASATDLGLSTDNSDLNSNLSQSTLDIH
- methodNotes: Immunoblotting of P300 protein levels in LNCaP or 22RV1 cells
- Assay type: cell-based
- Design: LNCaP or 22RV1 cells that express CBP/P300 proteins were treated with GNE-781 or the bivalent compounds; endogenous in cells; host or cells: LNCaP (clone FGC) or 22RV1 cells
- recordedConditions: percentage of inhibition of p300 at 10 nM (Table 2); read-out: Degradation (10 nM)

Take each entry in turn and give its inhibition at 0.01 µM.
1. CNC(=O)N1CCc2c(c(N3CCCc4cc(-c5cnn(CC(=O)NCCOCCOCCOCCOCCOCCNc6ccc7c(c6)C(=O)N(C6CCC(=O)NC6=O)C7=O)c5)c(C(F)F)cc43)nn2C2CCOCC2)C1 (centres unmarked)
2. CNC(=O)N1CCc2c(c(N3CCCc4cc(-c5cnn(C)c5)c(C(F)F)cc43)nn2C2CCN(C(=O)CCOCCOCCOCCOCCOCCNc3ccc4c(c3)C(=O)N(C3CCC(=O)NC3=O)C4=O)CC2)C1 (centres unmarked)
3. CNC(=O)N1CCc2c(c(N3CCCc4cc(-c5cnn(C)c5)c(C(F)F)cc43)nn2C2CCN(C(=O)CCCCNc3ccc4c(c3)C(=O)N(C3CCC(=O)NC3=O)C4=O)CC2)C1 (centres unmarked)

*A*
["< 20%", "< 20%", "> 80%"]

Take each entry in turn and give its inhibition at 0.01 µM.
1. CNC(=O)N1CCc2c(c(N3CCCc4cc(-c5cnn(CC(=O)NCC(=O)N[C@H](C(=O)N6C[C@H](O)C[C@H]6C(=O)NCc6ccc(-c7scnc7C)cc6)C(C)(C)C)c5)c(C(F)F)cc43)nn2C2CCOCC2)C1
2. CNC(=O)N1CCc2c(c(N3CCCc4cc(-c5cnn(CC(=O)NCCOCCOCCOCCOCCNc6cccc7c6C(=O)N(C6CCC(=O)NC6=O)C7=O)c5)c(C(F)F)cc43)nn2C2CCOCC2)C1 (centres unmarked)

*A*
1: < 20%; 2: < 20%

###

For each entry below, report its IC50 value.
- System: 22Rv1
- methodNotes: Cell viability assay, 22Rv1
- Type: cell-based
- recordedConditions: Homo sapiens, 22Rv1, Prostate carcinoma

Take each entry in turn and give its IC50.
1. CNC(=O)N1CCc2c(c(N3CCCc4cc(-c5cnn(C)c5)c(C(F)F)cc43)nn2C2CCN(C(=O)CCCCCCCNc3ccc4c(c3)C(=O)N(C3CCC(=O)NC3=O)C4=O)CC2)C1 (stereo not drawn) [P-007]
2. CNC(=O)N1CCc2c(c(N3CCCc4cc(-c5cnn(C)c5)c(C(F)F)cc43)nn2C2CCOCC2)C1 [GNE-781, reference compound]
3. CNC(=O)N1CCc2c(c(N3CCCc4cc(-c5cnn(C)c5)c(C(F)F)cc43)nn2C2CCN(C(=O)CCCCCNc3cccc4c3C(=O)N(C3CCC(=O)NC3=O)C4=O)CC2)C1 (stereo not drawn) [P-034]

*A*
3.2 nM
1680 nM
8.2 nM

###

For each entry below, report its inhibition at 0.01 µM value.
- targetEntity: UniProtKB Q09472
- methodNotes: Immunoblotting of P300 protein levels in LNCaP or 22RV1 cells
- Type: cell-based
- Parameters: LNCaP or 22RV1 cells that express CBP/P300 proteins were treated with GNE-781 or the bivalent compounds; endogenous in cells; host or cells: LNCaP (clone FGC) or 22RV1 cells
- recordedConditions: percentage of inhibition of p300 at 10 nM (Table 2); read-out: Degradation (10 nM)

Please review the entries below; each comes with its answer.
[
  {
    "compound": "CNC(=O)N1CCc2c(c(N3CCCc4cc(-c5cnn(CC(=O)NCCCCCCCNc6ccc7c(c6)C(=O)N(C6CCC(=O)NC6=O)C7=O)c5)c(C(F)F)cc43)nn2C2CCOCC2)C1 (stereo not shown) [P-026]",
    "inhibition at 0.01 µM": "> 80%"
  },
  {
    "compound": "CNC(=O)N1CCc2c(c(N3CCCc4cc(-c5cnn(C)c5)c(C(F)F)cc43)nn2C2CCN(C(=O)CNc3ccc4c(c3)C(=O)N(C3CCC(=O)NC3=O)C4=O)CC2)C1 (stereo not shown) [P-001]",
    "inhibition at 0.01 µM": "50 to 80%"
  },
  {
    "compound": "CNC(=O)N1CCc2c(c(N3CCCc4cc(-c5cnn(CC(=O)NCCCCCC(=O)N[C@H](C(=O)N6C[C@H](O)C[C@H]6C(=O)NCc6ccc(-c7scnc7C)cc6)C(C)(C)C)c5)c(C(F)F)cc43)nn2C2CCOCC2)C1 [P-047]",
    "inhibition at 0.01 µM": "< 20%"
  }
]

Take each entry in turn and give its inhibition at 0.01 µM.
1. CNC(=O)N1CCc2c(c(N3CCCc4cc(-c5cnn(CC(=O)NCCCCCCCC(=O)N[C@H](C(=O)N6C[C@H](O)C[C@H]6C(=O)NCc6ccc(-c7scnc7C)cc6)C(C)(C)C)c5)c(C(F)F)cc43)nn2C2CCOCC2)C1 [P-048]
2. CNC(=O)N1CCc2c(c(N3CCCc4cc(-c5cnn(CC(=O)NCCOCCOCCOCCOCCNc6ccc7c(c6)C(=O)N(C6CCC(=O)NC6=O)C7=O)c5)c(C(F)F)cc43)nn2C2CCOCC2)C1 (stereo not shown) [P-031]
3. CNC(=O)N1CCc2c(c(N3CCCc4cc(-c5cnn(CC(=O)NCCCCCCCNc6cccc7c6C(=O)N(C6CCC(=O)NC6=O)C7=O)c5)c(C(F)F)cc43)nn2C2CCOCC2)C1 (stereo not shown) [P-042]

*A*
< 20%
< 20%
< 20%

Take each entry in turn and give its inhibition at 0.01 µM.
1. CNC(=O)N1CCc2c(c(N3CCCc4cc(-c5cnn(C)c5)c(C(F)F)cc43)nn2C2CCN(C(=O)CCCCCNc3ccc4c(c3)C(=O)N(C3CCC(=O)NC3=O)C4=O)CC2)C1 (stereo not shown) [P-005]
2. CNC(=O)N1CCc2c(c(N3CCCc4cc(-c5cnn(CC(=O)NCCCCC(=O)N[C@H](C(=O)N6C[C@H](O)C[C@H]6C(=O)NCc6ccc(-c7scnc7C)cc6)C(C)(C)C)c5)c(C(F)F)cc43)nn2C2CCOCC2)C1 [P-046]
3. CNC(=O)N1CCc2c(c(N3CCCc4cc(-c5cnn(C)c5)c(C(F)F)cc43)nn2C2CCN(C(=O)CCOCCOCCOCCNc3ccc4c(c3)C(=O)N(C3CCC(=O)NC3=O)C4=O)CC2)C1 (stereo not shown) [P-010]
4. CNC(=O)N1CCc2c(c(N3CCCc4cc(-c5cnn(C)c5)c(C(F)F)cc43)nn2C2CCN(C(=O)CCOCCOCCOCCOCCNc3ccc4c(c3)C(=O)N(C3CCC(=O)NC3=O)C4=O)CC2)C1 (stereo not shown) [P-011]

*A*
> 80%
< 20%
20 to 50%
20 to 50%
